All figures here come from patent US5840684A.

The following compounds are shown together with reported mean geometric MIC, Vancomycin Resistant Strains values.
test system: vancomycin-resistant enterococci; experiment: broth micro-dilution, mean geometric MIC; type: cell-based, Enterococcus faecium and Enterococcus faecalis; details: enterococci, 24-hour incubation
Observable: mean geometric MIC, Vancomycin Resistant Strains (µg/mL)

Compound	Measurement unit	Measured
CNC(CC(C)C)C(=O)NC1C(=O)NC(CC(N)=O)C(=O)NC2C(=O)NC3C(=O)NC(C(=O)NC(C(=O)O)c4cc(O)cc(O)c4-c4cc3ccc4O)C(OC3CC(C)(N)C(O)C(C)O3)c3ccc(c(Cl)c3)Oc3cc2cc(c3OC2OC(CO)C(O)C(O)C2OC2CC(C)(NCc3cccnc3)C(O)C(C)O2)Oc2ccc(cc2Cl)C1O (stereo not drawn)	µg/mL	54
C=CCCCOc1ccc(CNC2(C)CC(OC3C(Oc4c5cc6cc4Oc4ccc(cc4Cl)C(OC4CC(C)(N)C(O)C(C)O4)C4NC(=O)C(NC(=O)C6NC(=O)C(CC(N)=O)NC(=O)C(NC(=O)C(CC(C)C)NC)C(O)c6ccc(c(Cl)c6)O5)c5ccc(O)c(c5)-c5c(O)cc(O)cc5C(C(=O)O)NC4=O)OC(CO)C(O)C3O)OC(C)C2O)cc1 (stereo not drawn)	µg/mL	1.6
CNC(CC(C)C)C(=O)NC1C(=O)NC(CC(N)=O)C(=O)NC2C(=O)NC3C(=O)NC(C(=O)NC(C(=O)O)c4cc(O)cc(O)c4-c4cc3ccc4O)C(OC3CC(C)(N)C(O)C(C)O3)c3ccc(c(Cl)c3)Oc3cc2cc(c3OC2OC(CO)C(O)C(O)C2OC2CC(C)(NCc3ccc4cc(C)ccc4c3)C(O)C(C)O2)Oc2ccc(cc2Cl)C1O (stereo not drawn)	µg/mL	2.4
CNC(CC(C)C)C(=O)NC1C(=O)NC(CC(N)=O)C(=O)NC2C(=O)NC3C(=O)NC(C(=O)NC(C(=O)O)c4cc(O)cc(O)c4-c4cc3ccc4O)C(OC3CC(C)(N)C(O)C(C)O3)c3ccc(c(Cl)c3)Oc3cc2cc(c3OC2OC(CO)C(O)C(O)C2OC2CC(C)(NCc3ccc(-c4ccc(Cl)cc4)cc3)C(O)C(C)O2)Oc2ccc(cc2Cl)C1O (stereo not drawn) [Compound 229, 4-[4-chlorophenyl]benzyl-A82846B]	µg/mL	0.50
CCCOC(c1ccccc1)c1ccc(CNC2(C)CC(OC3C(Oc4c5cc6cc4Oc4ccc(cc4Cl)C(OC4CC(C)(N)C(O)C(C)O4)C4NC(=O)C(NC(=O)C6NC(=O)C(CC(N)=O)NC(=O)C(NC(=O)C(CC(C)C)NC)C(O)c6ccc(c(Cl)c6)O5)c5ccc(O)c(c5)-c5c(O)cc(O)cc5C(C(=O)O)NC4=O)OC(CO)C(O)C3O)OC(C)C2O)cc1 (stereo not drawn)	µg/mL	2.0
CNC(CC(C)C)C(=O)NC1C(=O)NC(CC(N)=O)C(=O)NC2C(=O)NC3C(=O)NC(C(=O)NC(C(=O)O)c4cc(O)cc(O)c4-c4cc3ccc4O)C(OC3CC(C)(N)C(O)C(C)O3)c3ccc(c(Cl)c3)Oc3cc2cc(c3OC2OC(CO)C(O)C(O)C2OC2CC(C)(NCc3ccc4cc(OC)ccc4c3)C(O)C(C)O2)Oc2ccc(cc2Cl)C1O (stereo not drawn)	µg/mL	2.4
